Biological target: STAT6 (Homo sapiens (Human))
Sequence (P42226 whole entry): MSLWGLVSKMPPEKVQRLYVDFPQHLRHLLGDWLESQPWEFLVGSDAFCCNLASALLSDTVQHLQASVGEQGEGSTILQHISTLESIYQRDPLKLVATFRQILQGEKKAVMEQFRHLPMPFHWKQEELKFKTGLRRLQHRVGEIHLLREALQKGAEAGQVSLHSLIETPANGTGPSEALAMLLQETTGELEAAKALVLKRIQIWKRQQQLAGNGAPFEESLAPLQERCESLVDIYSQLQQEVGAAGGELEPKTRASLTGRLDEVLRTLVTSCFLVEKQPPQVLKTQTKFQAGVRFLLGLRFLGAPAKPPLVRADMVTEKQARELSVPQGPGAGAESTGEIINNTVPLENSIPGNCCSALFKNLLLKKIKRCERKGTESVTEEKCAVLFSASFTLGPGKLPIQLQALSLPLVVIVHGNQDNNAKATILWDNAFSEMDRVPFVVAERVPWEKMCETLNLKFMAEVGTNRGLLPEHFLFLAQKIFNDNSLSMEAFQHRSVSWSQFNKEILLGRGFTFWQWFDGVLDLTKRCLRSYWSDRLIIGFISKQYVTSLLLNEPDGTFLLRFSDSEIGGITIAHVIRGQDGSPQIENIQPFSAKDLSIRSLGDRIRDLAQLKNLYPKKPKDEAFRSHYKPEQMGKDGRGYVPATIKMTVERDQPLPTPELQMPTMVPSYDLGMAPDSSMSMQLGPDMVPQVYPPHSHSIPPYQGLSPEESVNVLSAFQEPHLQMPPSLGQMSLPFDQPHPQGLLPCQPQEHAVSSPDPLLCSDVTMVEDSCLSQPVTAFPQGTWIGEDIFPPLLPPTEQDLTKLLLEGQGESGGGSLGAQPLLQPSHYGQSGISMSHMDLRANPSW
Assay: STAT6 degrader assay (HiBiT, HeLa LgBiT clone 4.14)
Format: cell-based
Conditions: HeLa LgBiT clone 4.14, 4-24 h; geometric mean; given for compounds with >80% Emax; read-out: STAT6 degradation DC50
quantity.name: DC50 (nM)
Quick reminder: number only, in nM, skip the unit.

See these solved cases before continuing.
>>> test_value("C[C@H]1CN(Cc2ccc3c(c2)oc(=O)n3C2CCC(=O)NC2=O)CCN1CC1CCN(C(=O)c2ccc(C3CCN([C@@H](C)c4cc5c(-c6ccc(N)nc6)ccnc5n4C)CC3)cc2)CC1 (stereo partly drawn)")
0.7
>>> test_value("C[C@H]1CN(Cc2ccc3c(c2)C2(CCC2)C(=O)N3C2CCC(=O)NC2=O)CCN1CC1CCN(C(=O)c2ccc(C3CCN([C@@H](C)c4cc5c(-c6ccc(N)nc6)ccnc5n4C)CC3)cc2)CC1 (stereo partly drawn)")
3

Which DC50 reading was recorded for the compound Cn1c(CN2CCC(c3ccc(C(=O)N4CCC(CCn5cc(-c6ccc7c(c6)n(C)c(=O)n7C6CCC(=O)NC6=O)cn5)CC4)cc3)CC2)cc2c(-c3ccc4[nH]ncc4c3)ccnc21 (stereo not drawn) ? 2.6
